Every entry's value here was drawn from patent US20240317708A1.

# assay.comment: Caco-2 permeability assay (CacoReady kit)
# Format: in vitro ADME
# experimental.context: human
property.measured: Papp

• COC(=O)/C=C/CC[C@H](NC(=O)c1oc2ccccc2c1C)C(=O)Nc1cccn(CC(=O)NC2C3CC4CC2CC(Br)(C4)C3)c1=O (some centres unmarked) [III-41] = 1 to 10 ×10⁻⁶ cm/s
• COC(=O)/C=C/CC[C@H](NC(=O)c1oc2ccccc2c1C)C(=O)Nc1cccn(CC23CC4CC(CC(O)(C4)C2)C3)c1=O [III-80] = < 1 ×10⁻⁶ cm/s

Q. # input compound: COC(=O)/C=C/CC[C@H](NC(=O)C1Cc2ccccc2C1)C(=O)Nc1cccn(CC(=O)NC2C3CC4CC(C3)CC2C4)c1=O (some centres unmarked) [III-12] ; wanted: its Papp
A. 1 to 10 ×10⁻⁶ cm/s

Q. # input compound: COC(=O)/C=C/CC[C@H](NC(=O)c1oc2ccccc2c1C)C(=O)Nc1cccn(CC(=O)NC2C3CC4CC2CC(O)(C4)C3)c1=O (some centres unmarked) [III-38] ; wanted: its Papp
A. < 1 ×10⁻⁶ cm/s

Q. # input compound: COC(=O)/C=C/CC[C@H](NC(=O)[C@@H]1CCCN1C)C(=O)Nc1cccn(CC(=O)NC2C3CC4CC(C3)CC2C4)c1=O (some centres unmarked) [III-25] ; wanted: its Papp
A. < 1 ×10⁻⁶ cm/s

Q. # input compound: COC(=O)/C=C/CC[C@H](NC(=O)c1snnc1C)C(=O)Nc1cccn(CC(=O)N[C@@H]2C[C@H]3CC[C@@H]2C3)c1=O [III-110] ; wanted: its Papp
A. < 1 ×10⁻⁶ cm/s

Q. # input compound: COC(=O)/C=C/CC[C@H](NC(=O)c1cc(Br)cs1)C(=O)Nc1cccn(CC(=O)NC2C3CC4CC(C3)CC2C4)c1=O (some centres unmarked) [III-18] ; wanted: its Papp
A. < 1 ×10⁻⁶ cm/s

Q. # input compound: COC(=O)/C=C/CC[C@H](NC(=O)c1cccnn1)C(=O)Nc1cccn(CC(=O)NC2C3CC4CC(C3)CC2C4)c1=O (some centres unmarked) [III-86] ; wanted: its Papp
A. < 1 ×10⁻⁶ cm/s

Q. # input compound: COC(=O)/C=C/CC[C@H](NC(=O)c1snnc1C)C(=O)Nc1cccn(CC(=O)N[C@H]2C[C@H]3CC[C@]2(C)C3(C)C)c1=O [III-120] ; wanted: its Papp
A. < 1 ×10⁻⁶ cm/s

Q. # input compound: COC(=O)/C=C/CC[C@H](NC(=O)c1cncn1C)C(=O)Nc1cccn(CC(=O)NC23CC4(C)CC(C)(CC(C)(C4)C2)C3)c1=O [III-91] ; wanted: its Papp
A. 1 to 10 ×10⁻⁶ cm/s

Q. # input compound: COC(=O)/C=C/CC[C@H](NC(=O)c1oc2ccccc2c1C)C(=O)Nc1cccn(CC(=O)NC2C3CC4CC(C3)CC2C4)c1=O (some centres unmarked) [III-2] ; wanted: its Papp
A. 1 to 10 ×10⁻⁶ cm/s

Q. # input compound: COC(=O)/C=C/CC[C@H](NC(=O)c1cc(Cl)sc1Cl)C(=O)Nc1cccn(CC(=O)NC2C3CC4CC(C3)CC2C4)c1=O (some centres unmarked) [III-13] ; wanted: its Papp
A. 1 to 10 ×10⁻⁶ cm/s

Q. # input compound: COC(=O)/C=C/CC[C@H](NC(=O)c1oc2ccccc2c1C)C(=O)Nc1cccn(CC(=O)NC23CC4CC(C2)CC(C(=O)OC)(C4)C3)c1=O [III-54] ; wanted: its Papp
A. < 1 ×10⁻⁶ cm/s

Q. # input compound: C=CCNC(=O)/C=C/CC[C@H](NC(=O)c1nccc2cnccc12)C(=O)Nc1cccn(CC(=O)NC23CC(C2)C3)c1=O [III-151] ; wanted: its Papp
A. < 1 ×10⁻⁶ cm/s

Q. # input compound: COC(=O)/C=C/CC[C@H](NC(=O)c1cnn(C)c1)C(=O)Nc1cccn(CC(=O)NC2C3CC4CC(C3)CC2C4)c1=O (some centres unmarked) [III-130] ; wanted: its Papp
A. < 1 ×10⁻⁶ cm/s
